measurementDescription: soluble fraction after stress (log2 fold change); higher = more stays soluble; pooled small domains, quantitative proteomics
assayContext: stress: pH 4
The reader will find reported soluble fraction (log2) values listed item by item below.

Answered examples (2):
# constructSequence, valueType, assayResult
rows = [
    ("HMSSFRDISGTVYVKASAANLRSEPNTSSLIVDTLYYGASLQRISTNDIWTKVKTGNGQIGFMDNSLFQT", "soluble fraction (log2)", "≥ 0.43"),
    ("HMDSPVLTAEIKALIDKELEQNAVKLATGLKKQRKRATDIHDALIRQGHEVSYRTVVRYIRNKTAQTS", "soluble fraction (log2)", "≥ 0.43"),
]

Continue with the sequence presented below.
q: Given the entry "HMIISMKKTATKEQIAHVRELIEGMGYKAHMSVGAERVIFGAIGDERGKERLVSLEAQPGVEKVIPIL" , report its measured soluble fraction (log2).
a: ≥ 0.43

---

measurementDescription: soluble fraction after stress (log2 fold change); higher = more stays soluble; pooled small domains, quantitative proteomics
assayContext: stress: pH 4
soluble fraction (log2) class ranges: group A (below -0.7), group B (-0.7 to below -0.3), group C (-0.3 or more)

// known answers, use as guide
# constructSequence, classification
measured = [
    ("HMVSTEDEISDKLLLDFALEKLSENEKQIVKLRYYNSLTQSKTAEILNMTQVQVSRSEKKILAKLRGII", "group C"),
    ("HMELEQLKSQLTGFLKANREQIFTAQNLADGLRMTDSQGYKQVVNALNASVRDGDVIDIKNGYQYNKN", "group C"),
    ("HMPIDQAKRKKEIIQNFGIRKIYKFSEIFDLKFGRDNIIVTFLIILDMIKEGVVEINENKEEIEFEYK", "group C"),
    ("HMINIFKVKKAMEEIFASEWEDSPYTDQKISQILWSRGFSVSTGLVEKYRGQMGVPDANSRLNLN", "group A"),
    ("HMAGTDLSERESEIAMLLLKGYPYKLIASRLYISESTVKSHVQNIYGKLGIHSRTELIEQFSAS", "group A"),
]

q: Please classify: "HMNLTEIGQRIRDRREELGLSQDRLAKLGGLPRVTINQLETGSIGDLGVSKLLNLLDLLGLTLDA"
a: group B

q: Please classify: "HMPTQGELAILRVLWEQGPSTVRAVWEKLNSQSGTGYTTALKLMQIMAQKGLVSRDESQKTHVYRA"
a: group B

q: Please classify: "HMQLDLNENEKIIFEILQNNKTMQLSNLKTQTELSNKGWDKAIKSLTKQGLAKVSKIDNELIVEFL"
a: group A

q: Please classify: "HMSLTGFYNLTFKQADRLSVIDEAGEEVYKQAIAMGSTTKTIDLSALNAGVYFIRIYNGEVIAQEKIVLN"
a: group A

q: Please classify: "HMDDSSLFGRHTGIGFIVDDIDSGYQTLLAKGVSFEMPPTEQPWGGILALMKDPDGNIFYLD"
a: group B

q: Please classify: "HMLSVKEQTYQIIKEKILNQEYPAGARININELAEELGISNSPIREALSLLEQQGLVISNRSSGATVT"
a: group A

q: Please classify: "HMTATDRQLQLIAYTAARLMAEQGIADFNAAKRKAIQTLGLPNNAKLPGNADVEAQLRAYQRIF"
a: group C

q: Please classify: "HMGDGYTYYYDDTVLALGFTKIGNDYYIFNTFSGKMYKDATMWVNDNPYGIKGGMHYFDASGKMFV"
a: group B

q: Please classify: "HMPLAQRFGLTVAQARVLDLLAEGRSNRQIGELLGLTEGTVKIHVSAIMKAMGVSNRAEAALMANRKR"
a: group C

q: Please classify: "HMGLAWTVEGRTVLLGRTADRIELYNVGGGLVALARESDRISAPGVGLYVVRVVSDGQSVSQKIWIT"
a: group B

q: Please classify: "HMESAEQTGEELAARVNVLQTVSQALARELGREAAVEELADKMKMTVDEVKDIMKMAMDAMSM"
a: group A

q: Please classify: "HMDYQYILVDVKDRIATVTINRPEYSNAFARESYYEIADAMNTLGARDDVGVIVITGAGKHFSAGGDIKRF"
a: group B

Where do these numbers come from? They come from the domain aggregation screens of Martell et al. (2025).
